Where do these numbers come from? They come from PubChem BioAssay AID504652.

Listing of entries alongside the reported activity change, negative = inhibition.
- assay.system: D(1A) dopamine receptor (Homo sapiens) (UniProt P21728)
- Sequence (P21728 whole entry, looked up): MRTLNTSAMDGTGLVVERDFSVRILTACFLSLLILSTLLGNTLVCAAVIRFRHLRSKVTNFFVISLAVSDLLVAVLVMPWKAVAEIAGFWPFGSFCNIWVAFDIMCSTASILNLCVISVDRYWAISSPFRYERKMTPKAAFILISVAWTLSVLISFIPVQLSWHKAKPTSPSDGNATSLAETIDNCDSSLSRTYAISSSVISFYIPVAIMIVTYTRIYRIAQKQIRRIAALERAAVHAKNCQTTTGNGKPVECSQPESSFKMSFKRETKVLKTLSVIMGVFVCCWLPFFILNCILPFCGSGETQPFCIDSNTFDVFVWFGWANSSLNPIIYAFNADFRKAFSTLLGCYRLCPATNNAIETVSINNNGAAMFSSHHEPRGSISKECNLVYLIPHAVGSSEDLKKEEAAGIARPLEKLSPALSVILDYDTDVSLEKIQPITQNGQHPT
- assay.summary: Antagonist of Human D 1 Dopamine Receptor: qHTS; also: % is scaled to controls: 0 for no effect and ±100 for the full control effect
- measurement.conditions: HEK293 TREx D1 cells, calcium flux, dopamine EC80; at 10 µM; stronger effect = lower value
Screen size: about 360,000 compounds; about 11,000 (3.1%) were called active. For the sample, actives were picked, then their nearest neighbours and some compounds at random.
Output spec: scalar in %, unitless text.

Worked examples, 6 compounds total:
CN(C)CCOC(=O)C(c1ccccc1)C1(O)CCCC1 (stereo not given)    -42.6
O=C(NC1CCCCC1)c1ccc(CNc2c(N3CCOCC3)c(=O)c2=O)cc1    11.4
CCCCN(CC)C(=O)c1c[nH]c2ccc(S(=O)(=O)Nc3cccc(OC)c3)cc2c1=O    16.9
Cc1oc2cc(Br)c(O)c(Br)c2c1C(=O)c1ccccc1    -4.24
c1ccc2cc(OCCN3CCCC3)ccc2c1    12.7
COc1ccc(C)cc1Nc1nc2ccccc2c2nnc(C)n12    1.83

Challenge: Query: activity change, negative = inhibition; subject: CC(Nc1nc(N2CCCC2)nc2ccccc12)c1ccccc1 (stereo not given)
Response given: -25.4

Challenge: Quick one: activity change, negative = inhibition of `CN1CCN(C(=O)/C(=C\c2ccc3c(c2)OCO3)NC(=O)c2cccs2)CC1` ?
Response given: -1.26

Challenge: // returns reported activity change, negative = inhibition for input `COc1ccc(OC)c(-c2csc(-c3c(N)c(C(=O)c4ccccc4)n4ccccc34)n2)c1`
Response given: -9.07

Challenge: What does the record list as activity change, negative = inhibition for `COc1ccc(OCC(=O)OCCN(C)C)cc1` ?
Response given: -9.23

Challenge: What value of activity change, negative = inhibition has been recorded for this entry: `COc1cccc(N2C(=O)CN(Cc3ccccc3)C2=S)c1`
Response given: 1.81

Challenge: Requested field: activity change, negative = inhibition. Item: Cc1sc(C2C(C#N)=C(N)N(c3cccc(Cl)c3)C3=C2C(=O)CCC3)cc1CN1CCOCC1 (stereo not given)
Response given: -16.8

Challenge: Which activity change, negative = inhibition is listed for CCOC(=O)c1cc2c(=O)n3ccccc3nc2n(CC2CCCO2)c1=NC(=O)c1ccccc1F (stereo not given) ?
Response given: 7.85

Challenge: // activity change, negative = inhibition lookup, key: COc1ccc(C2/C(=C(/O)c3ccccc3)C(=O)C(=O)N2c2ncccn2)cc1OC (stereo not given)
Response given: 2.93

Challenge: Give the measured activity change, negative = inhibition of `COc1ccc(NC(=O)CSc2nccn2Cc2ccc3c(c2)OCO3)cc1` .
Response given: 6.87

Challenge: Need activity change, negative = inhibition of `Cc1oc2ccc(O)c(CN3CCCCC3)c2c1C(=O)Nc1cccc(C(F)(F)F)c1` , thanks.
Response given: 11.6

* * *

- assay.system: D(1A) dopamine receptor (Homo sapiens) (UniProt P21728)
- assay.summary: Antagonist of Human D 1 Dopamine Receptor: qHTS; also: % is scaled to controls: 0 for no effect and ±100 for the full control effect
- measurement.conditions: HEK293 TREx D1 cells, calcium flux, dopamine EC80; at 10 µM; stronger effect = lower value
About 11,000 (3.1%) of roughly 360,000 compounds were called active. This is one part of a sample in which actives are shown more often than they occur.
measurement.name: activity change, negative = inhibition (%)
// return numeric value only (unit: %, not printed)

CC(=O)c1ccc(N2CCN(C3C(=O)c4ccccc4N3C(C)=O)CC2)cc1 (stereo not drawn)    3.13
Fc1ccc(CN2CCc3nc(Nc4ccccc4)ncc3C2)cc1F    5.84
O=C(Nc1ccc([N+](=O)[O-])cc1)C1CC12CCC2 (stereo not drawn)    -56.8
COCCN(Cc1ccccc1)C(=O)Cc1ccc(S(=O)(=O)N2CCOCC2)s1    -46
COc1cc(Br)cc2cc(S(=O)(=O)c3ccccc3)c(=O)oc12    -1.47
CC1Cc2cc(S(=O)(=O)CCC(=O)Nc3ccc(F)c(Cl)c3)ccc2N1C(=O)C1CC1 (stereo not drawn)    -8.79
O=C(CSc1ccc(-c2ccccc2)nn1)NCC1CCCO1 (stereo not drawn)    5.37

Challenge: For `CCOC(=O)CNC(=O)c1cc2c(=O)n3cccc(C)c3nc2s1` , what is its reported activity change, negative = inhibition?
Response given: 0.697
